These data points were gathered from PubChem BioAssay (Tox21).

experiment: qHTS assay to test for compound auto fluorescence at 535 nm (green) in HepG2 cells (AID 720675); conditions: green autofluorescence 485/535 nm, 1 h; series mostly up to 46 µM
Activity calls are given as the source filed them. Calls come from the whole dose curve; as a rule, active = well fitted curve in the direction sought with a large enough effect in the repeat runs; inconclusive = weak or mixed curves; inactive = flat fitted curve, though single readings scatter.
recorded.endpoint: outcome

Please review the entries below; each comes with its answer.
NC[C@@H]1CC[C@@H](N)[C@@H](O[C@H]2[C@H](O)[C@@H](O[C@H]3O[C@H](CO)[C@@H](O)[C@H](N)[C@H]3O)[C@H](N)C[C@@H]2N)O1 = inactive
C[C@@H]1O[C@@H](OC[C@H]2O[C@@H](Oc3c(-c4ccc(OCCO)c(OCCO)c4)oc4cc(OCCO)cc(O)c4c3=O)[C@H](O)[C@@H](O)[C@@H]2O)[C@H](O)[C@H](O)[C@H]1O = inactive
CCCCCCCCCCCC[n+]1ccc2ccccc2c1 = inactive
CN(C)CCOc1ccc(/C(=C(/CCCl)c2ccccc2)c2ccccc2)cc1 = inactive

I would be grateful if you could provide outcome for each of the following entries.
1. CC[C@H]1OC(=O)C[C@@H](O)[C@H](C)[C@@H](O[C@@H]2O[C@H](C)[C@@H](O)[C@H](N(C)C)[C@H]2O)[C@@H](CCN2C[C@H](C)C[C@H](C)C2)C[C@@H](C)C(=O)/C=C/C(C)=C/[C@@H]1CO[C@@H]1O[C@H](C)[C@@H](O)[C@@H](OC)[C@H]1OC
2. C[C@H](O)CN(C)C
3. C[N+]1(CCCCC[N+]2(C)CCCC2)CCCC1
4. CC1CCCC(C)N1NC(=O)c1ccc(Cl)c(S(N)(=O)=O)c1 (stereo not given)

Solution:
1. inactive
2. inactive
3. inactive
4. inactive

I would be grateful if you could provide outcome for each of the following entries.
1. CC1(C)CCC(NC(=O)[C@@H](N)CCC(=O)O)CC1
2. c1ccc(-c2ccc(C(c3ccccc3)n3ccnc3)cc2)cc1 (stereo not given)
3. C[C@H](NCCc1ccc(O)cc1)[C@H](O)c1ccc(O)cc1

Solution:
inactive
inactive
inactive

I would be grateful if you could provide outcome for each of the following entries.
1. CCCC(CCC)C(=O)OC1C[C@H]2CC[C@@H](C1)[N+]2(C)C (stereo not given in full)
2. CC(=O)Oc1cc(C(F)(F)F)ccc1C(=O)O
3. CO/N=C(\C(=O)N[C@@H]1C(=O)N2C(C(=O)[O-])=C(C[n+]3ccc(N)n3CCO)CS[C@H]12)c1csc(N)n1

Solution:
["inactive", "inactive", "inactive"]

---

experiment: qHTS assay for small molecule agonists of the p53 signaling pathway - cell viability (AID 651633); settings: p53RE-bla HCT-116 viability, ATP luminescence, 16 h; series mostly up to 83.3 µM; note: nearly all actives have a fitted effect of over 30% in size
Results filed as inconclusive are left out. Active and inactive are the calls of the source. Calls follow the shape of the full dose curve.
Mark one answer only. Choices: active, inactive

Take a look at these entries with their results.
CO/N=C(\C(=O)N[C@@H]1C(=O)N2C(C(=O)O)=C(C[N+]3(C)CCCC3)CS[C@H]12)c1csc(N)n1 = inactive
CC1(C)CCC(NC(=O)[C@@H](N)CCC(=O)O)CC1 = inactive
CCc1cn([C@H]2C[C@H](O)[C@@H](CO)O2)c(=O)[nH]c1=O = inactive
CC1(C)S[C@@H]2[C@H](NC(=O)[C@@H](NC(=O)N3CCNC3=O)c3ccccc3)C(=O)N2[C@H]1C(=O)O = inactive
CC(C)(O/N=C(\C(=O)N[C@@H]1C(=O)N2C(C(=O)[O-])=C(C[n+]3ccccc3)CS[C@H]12)c1csc(N)n1)C(=O)O = inactive

Exercise: Any idea what this test logged for "COC1=C(OC)C(=O)C(C/C=C(\C)CC/C=C(\C)CC/C=C(\C)CC/C=C(\C)CC/C=C(\C)CC/C=C(\C)CC/C=C(\C)CC/C=C(\C)CC/C=C(\C)CCC=C(C)C)=C(C)C1=O" ?
Solution: inactive

Exercise: Any idea what this test logged for "CC(C)(C)C(=O)OCC(=O)[C@H]1CC[C@H]2[C@@H]3CCC4=CC(=O)CC[C@]4(C)[C@H]3CC[C@]12C" ?
Solution: inactive

Exercise: Any idea what this test logged for "CC(C)c1ncc([N+](=O)[O-])n1C" ?
Solution: inactive

Exercise: Any idea what this test logged for CCN1CCCC1CNC(=O)c1cc(S(=O)(=O)CC)ccc1OC (configuration not stated) ?
Solution: inactive

Exercise: Any idea what this test logged for "FC(F)(F)COCC(F)(F)F" ?
Solution: inactive

Exercise: Any idea what this test logged for "C[C@@H]1C(=O)NC2=Nc3cccc(Cl)c3CN21" ?
Solution: inactive

Exercise: Any idea what this test logged for "NC(=O)CC[C@@H]1NC(=O)[C@H](Cc2ccccc2)NC(=O)[C@H](Cc2ccc(O)cc2)NC(=O)[C@@H](N)CSSC[C@@H](C(=O)N2CCC[C@H]2C(=O)N[C@@H](CCCN=C(N)N)C(=O)NCC(N)=O)NC(=O)[C@H](CC(N)=O)NC1=O" ?
Solution: inactive

Exercise: Any idea what this test logged for "CN(C)CCOc1ccc(/C(=C(/CCCl)c2ccccc2)c2ccccc2)cc1" ?
Solution: active

Exercise: Any idea what this test logged for "O=C1C2CC3CC1CC(O)(C3)C2" ?
Solution: inactive

---

Assay: qHTS assay for small molecule activators of the heat shock response signaling pathway - cell viability counter screen (AID 743209); note: nearly all actives have a fitted effect of over 50% in size
Details: HSE-bla HeLa viability, CellTiter-Glo luminescence, 5 h; series mostly up to 62.6 µM
Source text: U.S. Tox21 Program National Center for Advancing Translational Sciences [NCATS] NIH Chemical Genomics Center [NCGC] U.S. Environmental Protection Agency [EPA] National Institutes of Environmental Health Sciences [NIEHS] National Toxicology Program [NTP] U.S. Food and Drug Administration [FDA] Tox21 Assay Overview: Various chemicals, environmental and physiological stress conditions may lead to the activation of heat shock response/ unfolded protein response (HSR/UPR). […]
Results filed as inconclusive are left out. Calls of active or inactive are those of the source. The call rests on the fitted dose curve; in most records, active means well fitted cell-killing curve with a large enough effect in the repeat runs; inconclusive means weak or mixed curves, or effect the other way; inactive means no such curve, though single readings can be large or run the other way.
Mark one answer only. Choices: yes (active), no (inactive)

Take a look at these entries with their results.
CCCCCCCCCC[N+](C)(CCCCCCCCCC)CCC[Si](OC)(OC)OC = yes
C=CCc1cc(S(=O)(=O)c2ccc(O)c(CC=C)c2)ccc1O = no
CC(Cc1ccc(O)c(O)c1)C(C)Cc1ccc(O)c(O)c1 (stereo unspecified) = no
CN1CCN(CCCN2c3ccccc3Sc3ccc(Cl)cc32)CC1 = no
SC1CCCCC1 = no

Exercise: Any idea what this test logged for "C[C@H]1O[C@@H](O[C@H]2CC[C@@]3(C)[C@H](CC[C@@H]4[C@@H]3C[C@@H](O)[C@]3(C)[C@@H](C5=CC(=O)OC5)CC[C@]43O)C2)C[C@H](O)[C@@H]1O[C@H]1C[C@H](O)[C@H](O[C@H]2C[C@H](O)[C@H](O[C@@H]3O[C@H](CO)[C@@H](O)[C@H](O)[C@H]3O)[C@@H](C)O2)[C@@H](C)O1" ?
Solution: yes

Exercise: Any idea what this test logged for "CCOc1ccc([N+](=O)[O-])cc1" ?
Solution: yes

Exercise: Any idea what this test logged for "CC1=C(/C=C/C(C)=C/C=C/C(C)=C\C(=O)O)C(C)(C)CCC1" ?
Solution: yes

Exercise: Any idea what this test logged for S=C1NC=NC2N=CNC12 (stereo unspecified) ?
Solution: no

Exercise: Any idea what this test logged for "CC(O)(c1ccc(Cl)cc1)c1ccc(Cl)cc1" ?
Solution: no

Exercise: Any idea what this test logged for "N#Cc1nc(Cl)c(Cl)c(Cl)c1Cl" ?
Solution: yes

---

assay: qHTS assay to identify small molecule antagonists of the glucocorticoid receptor (GR) signaling pathway - cell viability counter screen (AID 720693); conditions: GR-bla HeLa viability, CellTiter-Glo luminescence, 18 h, with 5 nM dexamethasone present; series mostly up to 58.5 µM; note: nearly all actives have a fitted effect of over 55% in size
Results filed as inconclusive are left out. Active and inactive are the calls of the source. Calls come from the whole dose curve; as a rule, active = well fitted cell-killing curve with a large enough effect in the repeat runs; inconclusive = weak or mixed curves, or effect the other way; inactive = no such curve, though single readings can be large or run the other way.
recorded.endpoint: outcome

Please review the entries below; each comes with its answer.
O=S(=O)(O)CC(S)CS (stereo unspecified) = inactive
CNC(=O)C[C@@H](N)C(=O)N[C@@H](C(=O)N[C@@H]1C(=O)N2[C@@H]1SC(C)(C)[C@@H]2C(=O)O)c1ccc(O)cc1 = inactive
NCCO/C=C/[C@H](N)C(=O)O = inactive
CCCCCCCCCCCCCCCC(=O)OC[C@H](COP(=O)([O-])OCC[N+](C)(C)C)OC(=O)CCCCCCCCCCCCCCC = inactive
CCN(CC)CC#CCOC(=O)C(O)(c1ccccc1)C1CCCCC1 (stereo unspecified) = inactive

I would be grateful if you could provide outcome for each of the following entries.
1. NCC[C@H](O)C(=O)N[C@@H]1C[C@H](N)[C@@H](O[C@H]2O[C@H](CN)CC[C@H]2N)[C@H](O)[C@H]1O[C@H]1O[C@H](CO)[C@@H](O)[C@H](N)[C@H]1O
2. CCCOC(=O)c1ccccc1O
3. CC[N+](CC)(CC)CCC(O)(c1ccccc1)C1CCCCC1 (stereo unspecified)
4. FC(F)(F)C(F)(F)C(F)(F)C(F)(F)C(F)(F)F

Solution:
1: inactive; 2: inactive; 3: inactive; 4: inactive

I would be grateful if you could provide outcome for each of the following entries.
1. COc1ccc(/C=C/C(=O)Nc2ccccc2C(=O)O)cc1OC
2. c1ccc(-c2ccc(C(c3ccccc3)n3ccnc3)cc2)cc1 (stereo unspecified)

Solution:
1: inactive; 2: inactive
